Values were extracted from paper PMC9514064.

Biological target: Bst TRAP11 (Geobacillus stearothermophilus, UniProt Q9X6J6)
Sequence (Q9X6J6 whole entry): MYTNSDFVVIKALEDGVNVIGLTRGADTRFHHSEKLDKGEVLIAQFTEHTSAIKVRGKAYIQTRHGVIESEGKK
Format: binding, B. stearothermophilus
Conditions: 1/(αK 0), NN model, dissociation constant for sites with one bound neighbor, ~25°C
metric_name: Kd (µM)
Numbers only, in µM.

GET /value?item= N[C@@H](Cc1c[nH]c2ccccc12)C(=O)O [Trp, tryptophan] &field=Kd returns 4.4

* * *

Target: Bha TRAP12 (Halalkalibacterium halodurans, UniProt Q9KCC6)
Sequence (Q9KCC6 whole entry): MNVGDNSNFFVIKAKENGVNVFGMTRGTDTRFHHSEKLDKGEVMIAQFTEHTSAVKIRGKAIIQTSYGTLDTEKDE
Type: binding, B. halodurans
Conditions: 1/K 0, NN model, dissociation constant for isolated sites, ~25°C
metric_name: Kd (µM)
Answers are plain numbers, in µM.

I looked up N[C@@H](Cc1c[nH]c2ccccc12)C(=O)O and its Kd for Bha TRAP12 (Halalkalibacterium halodurans, UniProt Q9KCC6) was 720
